experiment: yeast display, Sf9 membrane polyspecificity reagent, FACS + sequencing; frameworks hold sequencing errors
recorded_endpoint: polyreactivity (PSR sort gate)

Known polyreactivity (PSR sort gate) results, listed for orientation:
[
  {
    "polymer_sequence": "QVQLEESGGGLMQAGGNLRLSCAASGYISTHYDMDWYRQAPGRERELVARIDDGAITNYADSVKGRFTISRDNATNTVYLQMNSLKPEDTAVYYCAVYSGDDYYHDYWGQGTQVTVSS",
    "result": "low polyreactivity"
  },
  {
    "polymer_sequence": "QVQLVESGGGLVQAGGSLRLSCAASGRTFWAYAMGWYRQAPGKERELVAVIRGSGNTYYADSVKGRFTISRDNAKNTVYLQMNSLKPEDTAVYYCAASRAVTQYSGGGYWGQGTQVTVSS",
    "result": "high polyreactivity"
  },
  {
    "polymer_sequence": "QVQLVETGGGLVQAGGSLRLSCAASGRIFGRYAMGWSRQAPGKERELVASISRGGSTNYADSVKGRFTISRDNAKNTVYLQMNSLKPEDTAVYYCAKSGGVGGADRVGSWGQGTQVTVSS",
    "result": "low polyreactivity"
  },
  {
    "polymer_sequence": "QVQLVESGGGLVQAGGSLRLSCAASGSTFDHNVMGWYRQAPGKERELVAAISGSGGSTYYADSVKGRFTISRDNAKNTVYLQMNSLKPEDTAVYYCAARYYVGHRGYYSWGQGTQVTVSS",
    "result": "high polyreactivity"
  },
  {
    "polymer_sequence": "QVQLVESGGGLVQAGGSLRLSCAASGRIFGRYAMGWYIQAPGKERELVAAISRRGVSTTYADSVKGRFTISRDNAKNTVYLQMNSLKPEDTAVYYCAAVRYGYSSTRDYLGQGTQVTVSS",
    "result": "high polyreactivity"
  }
]

Item under review: QVQLVESGGCLVQAGGRLRISSAASGSIFAINDIGWYRQAPGKERELVAAIRSGGRTYYADSVKGRFTISRDNAKNTVYLQMNSLKPEYTAVYYCNAGGKWIGSDNWGQGTQVTVSS . Reported polyreactivity (PSR sort gate)?
high polyreactivity

Item under review: QVQLVESGGGLVQAGGSLRLSCAASGRIFPPNAMGWYRQAPGKERELVAAITRGGSTNYADSVKGRFTISRDNAKNTVYLQMNSLKPEDTAVYYCAARGLRRQAPFYYWGQGTQVTVSS . Reported polyreactivity (PSR sort gate)?
high polyreactivity

Item under review: QVQLVESGGGLVQAGGSLRLSCAASGGTFSSYAMGWYRPAPGKERELVADITRRGGSTYYADSVKGRFTISRDNAKNTVYLQMNSLKPEDTAVYYCAKDYFRRGLWGFSIYGYWGQGTQVTVSS . Reported polyreactivity (PSR sort gate)?
high polyreactivity

Item under review: QVQLVESGGGLVKAGGSLRLSCAASGFIFVPYAMGWYRQAPGKERELVAAITWSSGGNTYYADSVKGRFTISRDNAKNTVYLQMNSLKPEDTAVYYCAAEWYEAGYWYDYWGQGTQVTVSS . Reported polyreactivity (PSR sort gate)?
high polyreactivity

Item under review: KVQLVESGVGLDQAGGSHRLSCDASGYIFDDYAMGWYRKAPGKERELVAAISSSGTSTNYADSVKVRFTISRDNAKNTVYLQMNSLKPEDTAVYYCAARSAILKSGYLMDYWGLGTQVTVSS . Reported polyreactivity (PSR sort gate)?
low polyreactivity
